The following proteins are shown together with reported kcat of FX activation by FIXa (Xase complex with FVIIIa, PC/PS vesicles, Ca2+) values.
Biological target: Factor X (FX), P00742
Sequence (P00742 whole entry, looked up): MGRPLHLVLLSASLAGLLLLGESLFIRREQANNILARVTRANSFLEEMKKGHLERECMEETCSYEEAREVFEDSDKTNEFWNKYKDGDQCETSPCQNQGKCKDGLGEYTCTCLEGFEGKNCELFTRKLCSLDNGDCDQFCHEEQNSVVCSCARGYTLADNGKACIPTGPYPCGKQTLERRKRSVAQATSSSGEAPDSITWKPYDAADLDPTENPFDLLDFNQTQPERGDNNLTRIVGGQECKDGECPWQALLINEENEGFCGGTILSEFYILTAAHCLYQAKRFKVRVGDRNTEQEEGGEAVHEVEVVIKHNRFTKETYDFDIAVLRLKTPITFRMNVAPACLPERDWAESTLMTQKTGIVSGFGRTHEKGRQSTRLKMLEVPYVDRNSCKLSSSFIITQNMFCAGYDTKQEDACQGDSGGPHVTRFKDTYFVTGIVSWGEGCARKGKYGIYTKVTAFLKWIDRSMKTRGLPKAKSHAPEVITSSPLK
Report the figure along with its unit, number first.

// below: answered proteins
FIXa-D104N/K106S/Y155F/K247N/N249S/N260S (protein) chain 1: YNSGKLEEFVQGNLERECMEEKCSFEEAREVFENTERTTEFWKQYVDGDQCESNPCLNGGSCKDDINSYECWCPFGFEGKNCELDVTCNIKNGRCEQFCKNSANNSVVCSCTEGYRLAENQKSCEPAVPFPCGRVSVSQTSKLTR chain 2: VVGGEDAKPGQFPWQVVLNGKVDAFCGGSIVNEKWIVTAAHCVETGVKITVVAGEHNIEETEHTEQNRSVIRIIPHHNYSAAINKYNHDIALLELDEPLVLNSYVTPICIADKEYTNIFLKFGSGYVSGWGRVFHKGRSALVLQYLRVPLVDRATCLRSTKFTIYNNMFCAGFHEGGRDSCQGDSGGPHVTEVEGTSFLTGIISWGEECAMKGKYGIYTKVSRYVNWIKEKTKLT    0.5 s⁻¹
FIXa-D104N/K106S/K228N/K247N/N249S (protein) chain 1: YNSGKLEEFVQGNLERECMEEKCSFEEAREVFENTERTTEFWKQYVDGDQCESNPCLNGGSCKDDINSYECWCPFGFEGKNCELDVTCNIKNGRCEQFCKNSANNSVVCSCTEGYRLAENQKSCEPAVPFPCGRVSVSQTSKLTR chain 2: VVGGEDAKPGQFPWQVVLNGKVDAFCGGSIVNEKWIVTAAHCVETGVNITVVAGEHNIEETEHTEQNRSVIRIIPHHNYNAAINKYNHDIALLELDEPLVLNSYVTPICIADKEYTNIFLKFGSGYVSGWGRVFHKGRSALVLQYLRVPLVDRATCLRSTKFTIYNNMFCAGFHEGGRDSCQGDSGGPHVTEVEGTSFLTGIISWGEECAMKGKYGIYTKVSRYVNWIKEKTKLT    1.7 s⁻¹
FIXa-D104N/K106S/Y155F/K228N/K247N/N249S (protein) chain 1: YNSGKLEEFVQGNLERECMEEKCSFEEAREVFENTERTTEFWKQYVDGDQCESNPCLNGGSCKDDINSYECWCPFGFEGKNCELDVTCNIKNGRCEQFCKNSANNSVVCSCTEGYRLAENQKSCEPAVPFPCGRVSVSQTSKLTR chain 2: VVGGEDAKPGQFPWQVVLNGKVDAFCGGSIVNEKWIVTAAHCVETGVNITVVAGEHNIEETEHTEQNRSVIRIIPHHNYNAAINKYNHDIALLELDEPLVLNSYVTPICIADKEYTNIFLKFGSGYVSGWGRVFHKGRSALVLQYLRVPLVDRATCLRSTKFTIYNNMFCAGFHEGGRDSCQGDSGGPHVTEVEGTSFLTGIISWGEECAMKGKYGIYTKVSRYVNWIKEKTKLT    4.7 s⁻¹

Now look at this one.
**Query** Data request, read-out kcat of FX activation by FIXa (Xase complex with FVIIIa, PC/PS vesicles, Ca2+), for FIXa-Y155F/R318Y/R338E/T343R/R403E/E410N (protein) chain 1: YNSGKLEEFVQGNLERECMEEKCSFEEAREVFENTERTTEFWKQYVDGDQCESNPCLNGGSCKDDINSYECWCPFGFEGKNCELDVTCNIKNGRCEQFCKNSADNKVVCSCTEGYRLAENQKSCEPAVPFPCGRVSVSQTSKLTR chain 2: VVGGEDAKPGQFPWQVVLNGKVDAFCGGSIVNEKWIVTAAHCVETGVKITVVAGEHNIEETEHTEQKRNVIRIIPHHNYNAAINKYNHDIALLELDEPLVLNSYVTPICIADKEYTNIFLKFGSGYVSGWGRVFHKGYSALVLQYLRVPLVDRATCLESTKFRIYNNMFCAGFHEGGRDSCQGDSGGPHVTEVEGTSFLTGIISWGEECAMKGKYGIYTKVSEYVNWIKNKTKLT
**Result** 7.8 s⁻¹
